- Tested on: barnyardgrass (Echinochloa crus-galli)
- protocol_description: Test B pre-/postemergence plant response
- Format: in vivo
- condition_notes: Preemergence, 125 g ai/ha; 0 to 100 scale (0 no effect, 100 complete control)
measured_attribute: Barnyardgrass plant response rating
Quick one: just the number, no unit, thanks!

Consider the following illustrative entries.
>>> numeric_readout("Cn1nc(-c2c(C#N)cccc2Oc2ncc(Cl)cn2)cc1C(F)(F)F")
30
>>> numeric_readout("Fc1cccc(Oc2ncc(Cl)cn2)c1-c1cn(CC(F)(F)F)cn1")
0
>>> numeric_readout("Fc1cccc(Oc2ncc(Cl)cn2)c1-c1cnccn1")
10
>>> numeric_readout("FC(Cl)(Cl)c1cc(-c2ccccc2Oc2ncc(Cl)cn2)no1")
40
>>> numeric_readout("N#Cc1cccc(Oc2ncc(Cl)cn2)c1-c1cc(C(F)(F)F)ccn1")
90

Using the record for `Cc1csc(-c2c(C#N)cccc2Oc2ncc(Cl)cn2)c1` , report its Barnyardgrass plant response rating. 40

Using the record for `Clc1cnc(Oc2ccccc2-c2ccc(Br)s2)nc1` , report its Barnyardgrass plant response rating. 0

Using the record for `COc1cnc(Oc2ccccc2-c2cc(C(F)F)no2)nc1` , report its Barnyardgrass plant response rating. 40

Using the record for `FC(F)(F)c1csc(-c2ccccc2Oc2ncc(Cl)cn2)n1` , report its Barnyardgrass plant response rating. 0
